tested on: SF-268; experiment: Cytotoxicity against human SF268 cells assessed as cellular growth at 10 uM by SRB assay; format: functional
Measured Activity, listed per entry for reference.
experimental-readout: Activity (%)

O=C(NCc1cccnc1)c1sc2cc([N+](=O)[O-])ccc2c1Cl ... 99.64
Oc1ccccc1-c1nc(-c2cccs2)no1 ... 112.74
O=C(Nc1ccc2oc(=O)ccc2c1)c1ccc(-c2ccc(Br)cc2)o1 ... 106.9
O=C(Nc1ccc(S(=O)(=O)Nc2nccs2)cc1)c1cccs1 ... 114.27
Cc1cc(C)c(NC(=O)c2sc3nc4c(cc3c2N)C(=O)CCC4)c(C)c1 ... 38.6
O=C(Nc1nc2ccc(Cl)cc2s1)c1ccc(Cl)cc1 ... 112.46
Clc1ccccc1Nc1nnc(-c2ccncc2)s1 ... 104.7
Nc1c(C(=O)NCc2ccccc2)sc2nc3c(cc12)C(=O)CCC3 ... 112.13
COc1cc(/C=c2/sc3nc4ccccc4n3c2=O)cc(I)c1O ... 99.48
CC1(C)CC(=O)c2cc3c(N)c(C(=O)Nc4ccccc4Cl)sc3nc2C1 ... 122.6
O=c1/c(=C/c2ccccc2Cl)sc2nc(-c3ccccc3)nn12 ... 91.24
Cc1ccc(CNC(=O)c2[nH]c3ccccc3c2Cl)cc1 ... 86.83
Clc1cccc(-c2nc(-c3cccs3)no2)c1 ... 102.09
N#Cc1ccc(-n2nnc3ccccc32)cc1C#N ... 105
O=C(NCc1ccc(Cl)cc1)c1[nH]c2ccccc2c1Cl ... 105.1
CC1(C)CC(=O)c2cc3c(N)c(C(=O)Nc4ccc(F)cc4)sc3nc2C1 ... 124.1
Cc1c(OCC(=O)c2ccccc2)ccc2c1oc(=O)c1ccccc12 ... 100.71
O=C(NCCc1ccccc1)c1[nH]c2ccccc2c1Cl ... 92.71
Cc1ccc(C2=N/C(=C\c3ccccc3)C(=O)O2)cc1 ... 98.83
Cc1ccc(NC(=O)c2sc3nc4c(cc3c2N)C(=O)CCC4)cc1Cl ... 115.11
Cc1cccc(-c2nc(-c3cccs3)no2)c1 ... 112.75
Cc1ccc(NC(=O)c2sc3nc4c(cc3c2N)C(=O)CCC4)c(Br)c1 ... 100.61
O=S(=O)(Oc1ccc(-c2cnc3ccccc3n2)cc1)c1ccccc1 ... 98.77
COc1ccc(NC(=O)c2sc3nc4c(cc3c2N)C(=O)CCC4)cc1 ... 109.11

* * *

test system: MOLT-4; experiment: Cytotoxicity against human MOLT4 cells assessed as cellular growth at 10 uM by SRB assay; assay type: functional
Label scheme for Activity: lower than 90% is N, 90% and above is Y.

O=C(Nc1ccc2oc(=O)ccc2c1)c1ccc(-c2ccc(Br)cc2)o1 ... Y
c1ccc(-c2nc(-c3cccs3)no2)cc1 ... Y
Cc1cccc(-c2nc(-c3cccs3)no2)c1 ... Y
Cc1cc(C)c(NC(=O)c2sc3nc4c(cc3c2N)C(=O)CCC4)c(C)c1 ... N
Nc1c(C(=O)Nc2cccc(Cl)c2)sc2nc3c(cc12)C(=O)CCC3 ... N

* * *

system: MDA-MB-435; experiment: Cytotoxicity against human MDA-MB-435 cells assessed as cellular growth at 10 uM by SRB assay; format: functional
Measured Activity, listed per entry for reference.
experimental-readout: Activity (%)

Cc1cccc(-c2nc(-c3cccs3)no2)c1 ... 110.16
O=C(Nc1ccc2oc(=O)ccc2c1)c1ccc(-c2ccc(Cl)c(Cl)c2)o1 ... 88.86
Clc1cccc(-c2nc(-c3cccs3)no2)c1 ... 106.73
Clc1ccc(-c2nc(-c3cccs3)no2)cc1 ... 111.2
Cc1ccccc1NC(=O)c1sc2nc3c(cc2c1N)C(=O)CCC3 ... -12.89
O=c1/c(=C/c2ccccc2)sc2nc(-c3ccc(Cl)cc3Cl)nn12 ... 119.04
O=C(Nc1ccc(S(=O)(=O)Nc2nccs2)cc1)c1cccs1 ... 110.15
O=c1/c(=C/c2ccc(Cl)cc2Cl)sc2nc(-c3ccccc3)nn12 ... 106.5
O=C(NCCc1ccccc1)c1[nH]c2ccccc2c1Cl ... 96.07
Clc1ccccc1Nc1nnc(-c2ccncc2)s1 ... 93.62
Cc1ccc2c(c1)N/C(=C/C(=O)c1ccc(Cl)cc1)C(=O)O2 ... 105.53
Cc1ccc(S(=O)(=O)NC2=NC(=O)/C(=C\c3ccccc3)S2)cc1 ... 110.94
COc1ccc(Cl)cc1C(=O)Nc1nc2ccc(Cl)cc2s1 ... 97.59
Cc1cc(C)c(NC(=O)c2sc3nc4c(cc3c2N)C(=O)CCC4)c(C)c1 ... -34.35
O=C1N=C(c2ccccc2)S/C1=C\c1ccc2c(c1)OCO2 ... 103.92
Cc1cc(C)c(NC(=O)c2sc3nc4c(cc3c2N)C(=O)CC(C)(C)C4)c(C)c1 ... 97.97
Cc1c(OCC(=O)c2ccccc2)ccc2c1oc(=O)c1ccccc12 ... 98.4
N#Cc1ccc(NC(=O)c2sc3nc4c(cc3c2N)C(=O)CCC4)cc1 ... 97.44
Nc1c(C(=O)Nc2ccccc2F)sc2nc3c(cc12)C(=O)CCC3 ... -25.93
O=C(NCc1ccc(Cl)cc1)c1[nH]c2ccccc2c1Cl ... 103.29
N#Cc1ccc(-n2nnc3ccccc32)cc1C#N ... 85.25
O=C(Nc1nc2ccc(Cl)cc2s1)c1ccc(Cl)cc1Cl ... 94.59
Cc1ccc(NC(=O)c2sc3nc4c(cc3c2N)C(=O)CCC4)cc1Cl ... 99.15
O=S(=O)(Oc1ccc(-c2cnc3ccccc3n2)cc1)c1ccc2ccccc2c1 ... 95.36

* * *

system: MDA-MB-435; assay: Cytotoxicity against human MDA-MB-435 cells by SRB assay; format: functional
experimental-readout: log10 GI50 (log10 of the value in nM)

Nc1c(C(=O)Nc2ccccc2)sc2nc3c(cc12)C(=O)CCC3 ... 1.95
Nc1c(C(=O)Nc2ccccc2F)sc2nc3c(cc12)C(=O)CCC3 ... 2.29
Nc1c(C(=O)Nc2cccc(Cl)c2)sc2nc3c(cc12)C(=O)CCC3 ... 1.65
Cc1ccc(Cl)cc1NC(=O)c1sc2nc3c(cc2c1N)C(=O)CCC3 ... 3.04
Cc1ccccc1NC(=O)c1sc2nc3c(cc2c1N)C(=O)CCC3 ... 2.52
Cc1cc(C)c(NC(=O)c2sc3nc4c(cc3c2N)C(=O)CCC4)c(C)c1 ... 2.43

* * *

Measured Activity, listed per entry for reference.
tested on: HCT-116; assay: Cytotoxicity against human HCT116 cells assessed as cellular growth at 10 uM by SRB assay; assay type: functional
experimental-readout: Activity (%)

COc1ccc(NC(=O)c2sc3nc4c(cc3c2N)C(=O)CCC4)cc1 ... 97.11
Nc1c(C(=O)Nc2cccc(Cl)c2)sc2nc3c(cc12)C(=O)CCC3 ... 27.38
Cc1cc(C)c(NC(=O)c2sc3nc4c(cc3c2N)C(=O)CC(C)(C)C4)c(C)c1 ... 99.79
O=C(Nc1ccc2oc(=O)ccc2c1)c1ccc(-c2ccc(Cl)c(Cl)c2)o1 ... 57.64
CC1(C)CCc2cc(-c3ccn(S(=O)(=O)c4ccc(Cl)cc4)n3)ccc2O1 ... 61.1
CC1(C)CC(=O)c2cc3c(N)c(C(=O)Nc4ccc(Cl)cc4)sc3nc2C1 ... 108.43
Cc1ccccc1NC(=O)c1sc2nc3c(cc2c1N)C(=O)CCC3 ... 34.55
O=C(NCc1cccnc1)c1sc2cc([N+](=O)[O-])ccc2c1Cl ... 99.66
Cc1cccc(-c2nc(-c3cccs3)no2)c1 ... 96.5
Cc1ccc(S(=O)(=O)NC2=NC(=O)/C(=C\c3ccccc3)S2)cc1 ... 111.6
N#Cc1ccc(-n2nnc3ccccc32)cc1C#N ... 102.06
CC1(C)CCc2cc(-c3ccn(S(=O)(=O)c4cccc(C(F)(F)F)c4)n3)ccc2O1 ... 74.24
COc1ccc2nc(NC(=O)c3ccc(F)cc3)sc2c1 ... 95.31
CC1(C)CC(=O)c2cc3c(N)c(C(=O)Nc4ccccc4Cl)sc3nc2C1 ... 113.5
N#Cc1ccc(NC(=O)c2sc3nc4c(cc3c2N)C(=O)CCC4)cc1 ... 107.92
c1ccc(-c2nc(-c3cccs3)no2)cc1 ... 104.23
CC1(C)CC(=O)c2cc3c(N)c(C(=O)Nc4ccc(F)cc4)sc3nc2C1 ... 114.92
Clc1ccccc1Nc1nnc(-c2ccncc2)s1 ... 101.59
O=c1/c(=C/c2ccccc2)sc2nc(-c3ccc(Cl)cc3Cl)nn12 ... 100.59
Cc1ccc(NC(=O)c2sc3nc4c(cc3c2N)C(=O)CCC4)c(Br)c1 ... 106.38
CC1(C)CC(=O)c2cc3c(N)c(C(=O)NCc4ccccc4)sc3nc2C1 ... 103.66
CC1(C)CCc2cc(-c3ccn(S(=O)(=O)c4ccccc4Cl)n3)ccc2O1 ... 68.63
